Source: ChEMBL document CHEMBL1201862

Tested on: SR
Assay: NCI tumour cell line growth inhibition, 48 h
Activity calls are given as the source filed them. Rule as the data show it: active = GI50 up to about 1.1 µM and inactive = higher.
recordedMetric: GI50

Field: example entries. Status: answers known.
CCOC(=O)C1Sc2ccccc2N=C1C (stereo not given): > 100 µM (inactive)
C=CCOCCCC(=O)C(=[N+]=[N-])C(=O)OC: > 100 µM (inactive)
CC(C)(C)[Si](C)(C)OC1/C(=C/C#N)C(n2ccc(=O)[nH]c2=O)OC1CO (stereo not given): 42.1 µM (inactive)
COc1cccc2ccc3c(c12)C(=O)OC31CCc2c(C)cccc21 (stereo not given): 7.16 µM (inactive)
O=C(O)c1cccc(/N=N/c2c(S(=O)(=O)O)ccc3c2C(=O)c2ccccc2C3=O)c1O: > 100 µM (inactive)

Looking up COc1cc2c(c(OC)c1OC)-c1ccc(OC)c(=O)cc1C(NC(=O)CCCCCNc1ccc(N=[N+]=[N-])cc1[N+](=O)[O-])CC2 (stereo not given) , I found its GI50 recorded as < 0.01 µM (active)

Looking up Cn1c(=O)[nH]c2[nH]c3ccccc3c2c1=O , I found its GI50 recorded as > 100 µM (inactive)

Looking up O=C(O)Cc1cccc2c(=O)c3cccc([N+](=O)[O-])c3oc12 , I found its GI50 recorded as > 100 µM (inactive)

Looking up Cc1ccc(S(=O)(=O)n2c(-c3ccccc3)c(-c3ccccc3)c3ccccc32)cc1 , I found its GI50 recorded as 7.31 µM (inactive)

Looking up COC(=O)[C@@H]1[C@H](O)CC[C@H]2[C@@]1(C)CC[C@@H](C)[C@]2(COC(C)=O)CC(=O)c1ccoc1 , I found its GI50 recorded as > 50 µM (inactive)

---

Test system: OVCAR-4
Assay: NCI tumour cell line growth inhibition, 48 h
Calls of active or inactive are those of the source. Cut-off read from the data, not from the text of the source: active = GI50 up to about 1.1 µM and inactive = higher.
Outcomes you can answer with include only these: class 1 = active, class 0 = inactive

Illustrative cases are given below, each with its answer.
OC(c1ccccc1)(c1ccccc1)c1nccc2ccccc12: class 0
CC(=O)OCC12CC(CC1OC(C)=O)c1ccccc12 (stereo not drawn): class 0
COc1ccc(C(=O)O/N=C2/CCCCC2CN(C)C)cc1 (stereo not drawn): class 0

## Task Write down the call the test reported for this compound. Item: O=C(C=C1SCCS1)/C=C\c1ccc(Cl)cc1
## Result class 0

## Task Write down the call the test reported for this compound. Item: N#Cc1ccc(/C=N/NC(=O)CSCC(=O)N/N=C/c2ccc(C#N)cc2)cc1
## Result class 0

## Task Write down the call the test reported for this compound. Item: O=C(Nc1ccc(Cl)c(Cl)c1)OCCN1c2ccccc2Sc2ccccc21
## Result class 0

## Task Write down the call the test reported for this compound. Item: CCCCCCCCC/C=C1/CC(CO)(COC(=O)c2ccccc2)OC1=O (stereo not drawn)
## Result class 0

## Task Write down the call the test reported for this compound. Item: C1=Cc2nc1c(-c1ccncc1)c1ccc([n-]1)c(-c1ccncc1)c1nc(c(-c3ccncc3)c3ccc([n-]3)c2-c2ccncc2)C=C1.[Zn+2]
## Result class 0

## Task Write down the call the test reported for this compound. Item: CC(=O)OCCOCNC(=S)N/N=C/c1ccc(Br)s1
## Result class 0

## Task Write down the call the test reported for this compound. Item: CCO[C@@]12CCC3CC4CC[C@@](OCC)(O1)C4C32 (stereo partly drawn)
## Result class 0
